Test system: MS2 coat protein
Experiment: apparent KD of MS2 coat protein; designed switch direction (-1 OFF switch, 1 ON switch): -1; higher = weaker reporter binding
Conditions: input ligand: FMN 200 uM
Each entry gets N if its apparent KD of MS2 coat protein stays under 200 nM, and Y if its apparent KD of MS2 coat protein is 200 nM or above.

// known answers, use as guide
UAAGCUCUGUCAGGAUAUCCCUGUAAACGCAACGGAGAAGGGACAUGAGGAUCACCCAUGUGCGGGCCCAACGCGCUUGGGUCC [Gelaisve] (Eterna round: R96, puzzle: Exclusion NG 1) :: N
AAUAACAAGCCGAUCCUCGACAUGAGGAUCACCCAUGUGCUCGUCUUGUAAAGUACUAUCACGAAAGUGAUAGUACA (Eterna round: R97, puzzle: Sensor, turn-off variant 1) :: N
AGCCAAGCAGGAUAUGCCCGGAAUAACAUGAGGAUCACCCAUGUGACCGAUUGAUGUUCUGCAGAAGGGCUUGGAA [Erxesoan mod] (Eterna round: R97, puzzle: Exclusion 5) :: Y
AGCAGACGAGGAUAUAAAUUUAAAUACAUGAGGAUCACCCAUGUAUAAAUGUAUUUAAAUUUAGAAGGCGUCUGCU [E5/12-A1] (Eterna round: R97, puzzle: Exclusion 5) :: Y

Please check the record AGCUGUGGCCGAGGAUAUGACAUGAGGAUCACCCAUGUACAUAAUUAGGCCUGGUAACAGGCUCUUCAGAAGGCGGUCUCAGCA [Eli eng2 - 006] (Eterna round: R96, puzzle: Exclusion NG 2) and state if its apparent KD of MS2 coat protein is at or above 200 nM.
N

----------
Provide the reported apparent KD of MS2 coat protein of each item.
System: MS2 coat protein
Test: apparent KD of MS2 coat protein; designed switch direction (-1 OFF switch, 1 ON switch): 1; higher = weaker reporter binding
Conditions: Eterna round: R95; input ligand: none
Give bare numbers, in nM.

Solved entries:
AGUCCAGCCUGAGCUGGACAAAAGCAUGUACAUGAGGAUCACCCAUGUCAUGUACAAGCUUUUUGCUCGUCUUAAUA [Mat - hsa-mir-208a - Mod of JL - D44] (puzzle: Sensor for hsa-mir-208a) :: 634
GGGUAGGAAUUACAGGAUAUAUAGAAGUUGACAUGAGGAUCACCCAUGUAUGGGUUGGGAGGAGGAUAGAAGGGUAUGAGAGGUG [JR_SS2_Sub032] (puzzle: Same State 2) :: 113

Shifting focus to the sequence that follows.
Give the reported apparent KD of MS2 coat protein for GUUAUACAUGAGGAUCACCCAUGUCAAUGUAGUCGAGGAUAUGGGCAGCUAUGAGGCGUACUAGAAGGCGAAGAGU [JL-ss1-3.12 ViennaUCT mod] (puzzle: Same State 1) (system: MS2 coat protein).
309

----------
System: MS2 coat protein
Experiment: apparent KD of MS2 coat protein; higher = weaker reporter binding
Settings: Eterna round: R107; input ligand: theophylline 2 mM
Measured Quantity: apparent KD of MS2 coat protein
Don't forget the unit after the number, please.

Solved entries:
GGGACACCGGGAAGGAGCGCAUCCAAACCACACAUGAGGAUCACCCAUGUAUAAAUAUGCAUGCAGGUAGGUCGCCCGAUGUCUC [Anrearradi] :: 120 nM
GUAUAUUAUAGAAGGAGCGUCGAAAAUGGGUAAACAUGAGGAUCACCCAUGUAAAGGGAACGACAGGUAGGUCGCUAUAAUAUAC [AstromonsSSArgB#14] :: 311 nM
AGCUCGCAUCCUCAAGCGUCAAAGACGCGUCGAGGACCGGUACGGCCGCCACUCGACAAGAGGAUCACCCUUGUCUAAGCGAGCA [TrypAX 4 #SwitchBubble #AlternativeMS2 #MS2Late #CuTurnoff] :: 264 nM
AGCUCGCAUCCUCAAAGCGUCAAAGACGCACGAGGACCGGUACGGCCGCCACUCGACCUGAGGAUCACCCUGGUCUAAGCGAGCA [TrypAX 9 #SwitchBubble #AlternativeMS2 #MS2Late #CuTurnoff] :: 48.8 nM

Shifting focus to the sequence that follows.
Given UUCAUGAGGAUUGAUACCAGCCACCAACAUGAGGAACUUACAUGAGGAUCACCCAUGUGAGGCCCUUGGCAGCAAGCAUACAUGA [Exclusion Theophylline B 3] , state its recorded apparent KD of MS2 coat protein.
48.5 nM
